Substrate: gfPET
test.description: Proxy for plastic degradation [Released monomer concentration (HPLC/LC-MS) (TPA+MHET+BHET)]
test.context: 60 °C
I'd be grateful if you could share measured Proxy for plastic degradation for these entries.
One number for each entry, in mmol/h.

The following proteins have reported results that may help.
unnamed (protein) MENPYERGPDPTESSIEAVRGPFAVAQTTVSRLQADGFGGGTIYYPTDTSQGTFGAVAISPGFTAGQESIAWLGPRIASQGFVVITIDTITRLDQPDSRGRQLQAALDHLRTNSVVRNRIDPNRMAVMGHSMGGGGALSAAANNTSLEAAIPLQGWHTRKNWSSVRTPTLVVGAQLDTIAPVSSHSEAFYNSLPSDLDKAYMELRGASHFVSNTPDTTTAKYSIAWLKRFVDNDLRYEQFLCPAPDDFAISEYRATCPF    0.18
unnamed (protein) MANPYERGPAPTTSSIEASRGPFAIASVTVSRSSVSGFGGGTIYYPRDTSEGTFGAVAIAPGFTADEGSMAWYGPRIASQGFVVFTIDTITRLDQPDSRGRQLLAALDYLTQRSSVRSRIDSSRLAVMGHSMGGGGSLEASVSRPSLKAAIPLTPWNLKKNWRDVRVPTLIVGAESDSIASVRTHAEPFYESIPSTTNKAYLELNNATHFAPNISNTTIAKYSISWLKRFVDNDTRYEQFLCPPPRPDRDIEEYRSTCPH    0.1

Could you now consider this next protein?
What does the record list as Proxy for plastic degradation for unnamed (protein) MDNPYERGPDPTTQSVEAARGPYAVSQITVGGQFGSYSGGTIYYPTSTADGKFGAVAIAPGFLSFQSSVAWLGPRLASQGFVVMTIDTGTIFDQPAQRGDQLLDALDFLTQRSSVKDRIDPNRLAVAGWSMGGGGSLEAAADRPSLKAAIPMAGWNLNTNWSRLTTPVLVVGVQNDLIAPVGSHSEPFYNSIRSEKAYLELAGGSHFTVTSANTPQAKLMISWLKRFVDNDTRYEQFICPGPSRGFSVSEYRSTCPF ?
0.1

Where do the numbers come from? From the PETadex activity labels (doi:10.1002/cssc.202101062).
